Species: Rattus norvegicus
assay.details: Selectivity ratio of Ki for central benzodiazepine receptor to Ki for peripheral benzodiazepine receptor in Sprague-Dawley rat cerebral cortex membrane
Type: tissue-based
Parameter: Ratio Ki. Scope: all listed entries.
property.label: Ratio Ki

smiles_text=CCCCN(C)C(=O)Cc1c(-c2ccc(Cl)c(N)c2)nc2c(Cl)cccn12 reading_qualifier== observed_measurement=187
smiles_text=CCCN(CCC)C(=O)Cc1c(-c2ccc(O)cc2)nc2c(Cl)cc(Cl)cn12 reading_qualifier=> observed_measurement=1000
smiles_text=CN(C(=O)Cc1c(-c2ccc(O)cc2)nc2c(Cl)cc(Cl)cn12)c1ccccc1 reading_qualifier=> observed_measurement=1000
smiles_text=CCCCN(C)C(=O)Cc1c(-c2ccc(Cl)c(N)c2)nc2c(Cl)cc(Cl)cn12 reading_qualifier== observed_measurement=686

###

pKi: −log10 of the molar value.
The following are reported pKi results, target or system Translocator protein (Rattus norvegicus, UniProt P16257).
property.label: pKi

smiles_text=CCCN(CCC)C(=O)Cc1c(-c2ccc(Cl)cc2)nc2c(NC(=O)CC(=O)O)cccn12 target_or_system="Translocator protein (Rattus norvegicus, UniProt P16257)" observed_measurement=6.71
smiles_text=CCCCN(C)C(=O)Cc1c(-c2ccc(Cl)c(N)c2)nc2c(Cl)cc(Cl)cn12 target_or_system="Translocator protein (Rattus norvegicus, UniProt P16257)" observed_measurement=9.11
smiles_text=CCCN(CCC)C(=O)Cc1c(-c2ccc(Cl)cc2)nc2c(NC(=O)CN)cccn12 target_or_system="Translocator protein (Rattus norvegicus, UniProt P16257)" observed_measurement=7.85
smiles_text=CN(C(=O)Cc1c(-c2nccs2)nc2c(Cl)cc(Cl)cn12)c1ccccc1 target_or_system="Translocator protein (Rattus norvegicus, UniProt P16257)" observed_measurement=8.84
smiles_text=CCCCN(C)C(=O)Cc1c(-c2ccc(O)cc2)nc2c(Cl)cc(Cl)cn12 target_or_system="Translocator protein (Rattus norvegicus, UniProt P16257)" observed_measurement=9.06
smiles_text=CCCN(CCC)C(=O)Cc1c(-c2ccc(OC(=O)CCC(=O)OC)cc2)nc2c(Cl)cc(Cl)cn12 target_or_system="Translocator protein (Rattus norvegicus, UniProt P16257)" observed_measurement=8.77
smiles_text=CCCN(CCC)C(=O)Cc1c(-c2ccc(OC(=O)CN)cc2)nc2c(Cl)cc(Cl)cn12 target_or_system="Translocator protein (Rattus norvegicus, UniProt P16257)" observed_measurement=8.82
smiles_text=COc1ccc(-c2nc3c(Cl)cc(Cl)cn3c2CC(=O)N(C)c2ccccc2)cc1 target_or_system="Translocator protein (Rattus norvegicus, UniProt P16257)" observed_measurement=9.64
smiles_text=CCCN(CCC)C(=O)Cc1c(-c2ccc(Cl)c(NC(=O)CCC(=O)O)c2)nc2c(Cl)cc(Cl)cn12 target_or_system="Translocator protein (Rattus norvegicus, UniProt P16257)" observed_measurement=7.84
smiles_text=CN(C(=O)Cc1c(-c2ccc(O)cc2)nc2c(Cl)cc(Cl)cn12)c1ccccc1 target_or_system="Translocator protein (Rattus norvegicus, UniProt P16257)" observed_measurement=9.49
smiles_text=CCCCN(C)C(=O)Cc1c(-c2ccc(Cl)c([N+](=O)[O-])c2)nc2c(Cl)cccn12 target_or_system="Translocator protein (Rattus norvegicus, UniProt P16257)" observed_measurement=8.94
smiles_text=CCCN(CCC)C(=O)Cc1c(-c2ccc([N+](=O)[O-])cc2)nc2c(Cl)cc(Cl)cn12 target_or_system="Translocator protein (Rattus norvegicus, UniProt P16257)" observed_measurement=9.82
smiles_text=CCCN(CCC)C(=O)Cc1c(-c2ccc(Cl)c([N+](=O)[O-])c2)nc2c(Cl)cc(Cl)cn12 target_or_system="Translocator protein (Rattus norvegicus, UniProt P16257)" observed_measurement=9.62
smiles_text=CCCN(CCC)C(=O)Cc1c(-c2nccs2)nc2c(Cl)cc(Cl)cn12 target_or_system="Translocator protein (Rattus norvegicus, UniProt P16257)" observed_measurement=8.68
smiles_text=CCCN(CCC)C(=O)Cc1c(-c2ccc(OC)cc2)nc2c(Cl)cc(Cl)cn12 target_or_system="Translocator protein (Rattus norvegicus, UniProt P16257)" observed_measurement=9.51
smiles_text=CCCN(CCC)C(=O)Cc1c(-c2ccc(Cl)cc2)nc2c(NC(=O)CCC(=O)O)cccn12 target_or_system="Translocator protein (Rattus norvegicus, UniProt P16257)" observed_measurement=6.54
smiles_text=CCCCN(C)C(=O)Cc1c(-c2ccc(Cl)c(N)c2)nc2c(Cl)cccn12 target_or_system="Translocator protein (Rattus norvegicus, UniProt P16257)" observed_measurement=8.98
smiles_text=CCCCN(C)C(=O)Cc1c(-c2ccc(Cl)c([N+](=O)[O-])c2)nc2c(Cl)cc(Cl)cn12 target_or_system="Translocator protein (Rattus norvegicus, UniProt P16257)" observed_measurement=9.52
smiles_text=CCCN(CCC)C(=O)Cc1c(-c2ccc(Cl)cc2)nc2c(NC(=O)CCCC(=O)O)cccn12 target_or_system="Translocator protein (Rattus norvegicus, UniProt P16257)" observed_measurement=6.93
smiles_text=CCCCN(C)C(=O)Cc1c(-c2ccc(OC)cc2)nc2c(Cl)cc(Cl)cn12 target_or_system="Translocator protein (Rattus norvegicus, UniProt P16257)" observed_measurement=9.14
smiles_text=CCCN(CCC)C(=O)Cc1c(-c2ccc(Cl)cc2)nc2c(NC(=O)CCC(=O)OCC)cccn12 target_or_system="Translocator protein (Rattus norvegicus, UniProt P16257)" observed_measurement=9.07
smiles_text=CCCN(CCC)C(=O)Cc1c(-c2ccc(O)cc2)nc2c(Cl)cc(Cl)cn12 target_or_system="Translocator protein (Rattus norvegicus, UniProt P16257)" observed_measurement=8.88
